Assay: Fraction of drug unbound to plasma proteins, mouse
Assay type: in vitro ADME
Settings: Mouse plasma proteins (Table 12); read-out: Fu (p) %
ASSAY_METRIC: fraction unbound
Lab note: write the figure by itself, no unit.

Look up fraction unbound: CN1CCN(c2cccc3nc([C@H]4CCC[C@@H](c5ncccc5Cl)N4)cn23)CC1 (single isomer, unassigned)
0.143

====

Molecular target: CXCR-4 transfected U87 cell line (U87.CXCR4) (Homo sapiens (Human))
Sequence (P61073 whole entry): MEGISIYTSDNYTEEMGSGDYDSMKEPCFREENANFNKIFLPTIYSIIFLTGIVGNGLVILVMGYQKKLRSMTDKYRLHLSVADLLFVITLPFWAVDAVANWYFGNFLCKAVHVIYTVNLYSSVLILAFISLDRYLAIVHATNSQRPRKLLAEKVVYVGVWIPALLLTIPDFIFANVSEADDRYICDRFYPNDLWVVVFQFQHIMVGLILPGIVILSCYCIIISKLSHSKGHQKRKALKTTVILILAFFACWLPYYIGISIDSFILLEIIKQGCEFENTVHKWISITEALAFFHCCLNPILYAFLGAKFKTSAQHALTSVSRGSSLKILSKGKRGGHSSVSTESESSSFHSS
Test: Intracellular CXCL-12-induced calcium mobilization assay (FLIPR)
Details: U87.CXCR4 cells, CXCL-12 25-50 ng/mL; read-out: IC50 CXCL-12 Ca2+ flux U87.CXCR4+
pIC50: −log10 of the molar value.
ASSAY_METRIC: pIC50

Look up pIC50: Cc1cccnc1[C@@H]1CCC[C@H](c2nc3cccc(N4CC5CCC(C4)N5C)n3c2Cl)N1C [Compound I-137]
6.00 to 7.00

Same again, this time with CN1CC2CCC(C1)N2c1cccc2nc([C@H]3CCC[C@@H](c4ncccc4Cl)N3C)c(CO)n12 [Compound I-134]
7.00 to 11.00

Same again, this time with CCN1CCN(c2cccc3nc([C@H]4CCC[C@@H](c5ncccc5C(C)C)N4C)c(CO)n23)CC1 [Compound I-75]
≤ 6.00

Same again, this time with CCN1CCN(c2cccc3nc([C@H]4CCC[C@@H](c5ncccc5C)N4C)c(COC(C)C)n23)CC1 [Compound I-60]
7.00 to 11.00

Same again, this time with CN1C2CCC1CN(c1cccc3nc([C@H]4CCC[C@@H](c5ncccc5Cl)N4)cn13)C2 [Compound I-181]
7.00 to 11.00

Same again, this time with Cc1cccnc1[C@@H]1CCC[C@H](c2cn3c(N4CCN(CC(F)(F)F)CC4)cccc3n2)N1C [Compound I-14]
6.00 to 7.00

Same again, this time with CCOCc1c([C@H]2CCC[C@@H](c3ncccc3C)N2C)nc2cccc(N3CCN(C4CC4)CC3)n12 [Compound I-58]
≤ 6.00

====

Assay: in vitro
Conditions: human, Caco-2, pH 7.4
For each record, write down the corresponding Papp A→B at 90 min, 10 μM.

Look up Papp A→B at 90 min, 10 μM: CN1CCN(c2cccc3nc([C@H]4CCC[C@@H](c5ncccc5Cl)N4)cn23)CC1 (single isomer, unassigned) [Compound I-188]
10 to 30 ×10⁻⁶ cm/s

Same again, this time with CCOCc1c([C@H]2CCC[C@@H](c3ncccc3C)N2C)nc2cccc(N3CCN(C)CC3)n12 [Compound I-21]
0.1 to 10 ×10⁻⁶ cm/s

Same again, this time with CN1C2CCC1CN(c1cccc3nc([C@H]4CCC[C@@H](c5ncccc5Cl)N4)cn13)C2 [Compound I-181]
0.1 to 10 ×10⁻⁶ cm/s

Same again, this time with Cc1cccnc1[C@@H]1CCC[C@H](c2cn3ccccc3n2)N1Cc1ccccc1-n1cccn1 [Compound I-16]
10 to 30 ×10⁻⁶ cm/s

Same again, this time with Cc1cccnc1[C@@H]1CCC[C@H](c2nc3cccc(N4CCN(C)CC4)n3c2Cl)N1C(C)C [Compound I-127]
0.1 to 10 ×10⁻⁶ cm/s

Same again, this time with Cc1cccnc1[C@H]1CCC[C@@H](c2nc3cccc(N4CCN(C)CC4)n3c2C)N1 (stereo in doubt) [Compound I-192]
0.1 to 10 ×10⁻⁶ cm/s

Same again, this time with CO[C@@H](c1c([C@H]2CCC[C@@H](c3ncccc3C)N2C)nc2ccccn12)C1CCN(C)CC1 [Compound I-105]
0.1 to 10 ×10⁻⁶ cm/s

Same again, this time with CCN1CCN(Cc2c([C@H]3CCC[C@@H](c4ncccc4C)N3C)nc3ccccn23)CC1 [Compound I-40]
0.1 to 10 ×10⁻⁶ cm/s

Same again, this time with CC[C@@H](O)c1c([C@H]2CCC[C@@H](c3ncccc3C)N2C)nc2cccc(N3CCN(C)CC3)n12 [Compound I-139]
0.1 to 10 ×10⁻⁶ cm/s

Same again, this time with Cc1cccnc1[C@@H]1CCC[C@H](c2nc3cccc(N4CCC(N(C)C)CC4)n3c2Cl)N1C [Compound I-114]
0.1 to 10 ×10⁻⁶ cm/s

Same again, this time with Cc1cccnc1[C@@H]1CCC[C@H](c2nc3cccc(N4CC5CCC(C4)N5C)n3c2Cl)N1C [Compound I-137]
0.1 to 10 ×10⁻⁶ cm/s

Same again, this time with CCOCc1c([C@H]2CCC[C@@H](c3ncccc3Cl)N2C)nc2cccc(N3CCN(C)CC3)n12 [Compound I-117]
10 to 30 ×10⁻⁶ cm/s

Same again, this time with CN1CCN(c2cccc3nc([C@H]4CCC[C@@H](c5ncccc5Cl)N4C)c(CO)n23)CC1 [Compound I-116]
0.1 to 10 ×10⁻⁶ cm/s

Same again, this time with Cc1cccnc1[C@@H]1CCC[C@H](c2cn3c(N4CCN(C)CC4)cccc3n2)N1C(C)C [Compound I-126]
0.1 to 10 ×10⁻⁶ cm/s

Same again, this time with CN(C)C1CCN(c2cccc3nc([C@H]4CCC[C@@H](c5ncccc5Cl)N4C)c(Cl)n23)CC1 [Compound I-132]
0.1 to 10 ×10⁻⁶ cm/s

These data points were gathered from patent US10759796B2.
